SUBJECT OF TEST: Cholinesterase (Equus caballus)
Sequence (P81908 whole entry): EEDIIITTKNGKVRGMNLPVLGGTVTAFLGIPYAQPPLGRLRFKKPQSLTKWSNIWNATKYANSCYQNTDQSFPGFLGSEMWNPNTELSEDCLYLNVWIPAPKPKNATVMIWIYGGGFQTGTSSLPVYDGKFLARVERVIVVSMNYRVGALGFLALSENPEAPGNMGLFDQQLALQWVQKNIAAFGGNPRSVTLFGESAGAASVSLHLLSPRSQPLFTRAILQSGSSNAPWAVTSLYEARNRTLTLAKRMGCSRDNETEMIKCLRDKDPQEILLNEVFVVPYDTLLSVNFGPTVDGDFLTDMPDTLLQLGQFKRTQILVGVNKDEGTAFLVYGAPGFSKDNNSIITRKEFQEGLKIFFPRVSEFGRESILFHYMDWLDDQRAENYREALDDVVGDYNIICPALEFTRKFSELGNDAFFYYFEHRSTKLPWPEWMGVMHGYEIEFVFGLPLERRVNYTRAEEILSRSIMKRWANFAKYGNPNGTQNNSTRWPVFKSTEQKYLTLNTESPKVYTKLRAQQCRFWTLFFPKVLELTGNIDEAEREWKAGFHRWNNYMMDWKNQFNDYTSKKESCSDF
TEST METHOD NOTES: Inhibition of equine serum BuChE using Acetyl and butyrylthiocholine iodide as substrate preincubated for 5 mins followed by substrate addition and measured every min for 10 mins by Ellman's method
pIC50: −log10 of the molar value.

SMILES STRING | pIC50
COc1cc(N)c(F)cc1C(=O)CCC1CCN(CC2CCCCC2)CC1 | 5.21

* * *

SUBJECT OF TEST: 5-hydroxytryptamine receptor 4 (Homo sapiens)
Sequence (Q13639 whole entry): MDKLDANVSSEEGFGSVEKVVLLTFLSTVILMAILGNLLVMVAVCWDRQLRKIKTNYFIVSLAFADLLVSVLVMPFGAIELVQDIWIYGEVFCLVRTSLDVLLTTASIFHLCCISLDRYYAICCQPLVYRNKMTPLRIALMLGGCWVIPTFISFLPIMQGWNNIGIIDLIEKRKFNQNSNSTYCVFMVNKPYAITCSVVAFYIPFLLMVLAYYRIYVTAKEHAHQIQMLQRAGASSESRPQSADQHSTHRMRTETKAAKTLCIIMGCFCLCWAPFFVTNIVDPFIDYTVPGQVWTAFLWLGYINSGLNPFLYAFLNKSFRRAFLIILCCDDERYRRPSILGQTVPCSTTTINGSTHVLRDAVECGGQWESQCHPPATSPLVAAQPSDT
TEST METHOD NOTES: Partial agonist activity at human recombinant 5HT4 receptor transiently transfected in […] cells using p-nitrophenyl phosphate disodium hexahydrate as substrate assessed as induction of sAPPalpha release incubated for 30 mins by microplate reader analysis
Format: functional, cell-based
TEST CONDITIONS: filed as partial agonist
pEC50: −log10 of the molar value.

SMILES STRING | SUBJECT OF TEST | pEC50
COc1cc(N)c(F)cc1C(=O)CCC1CCN(CC2CCCCC2)CC1 | 5-hydroxytryptamine receptor 4 (Homo sapiens) | 7.64

* * *

SUBJECT OF TEST: Cytochrome P450 2A6 (Homo sapiens)
Sequence (P11509 whole entry): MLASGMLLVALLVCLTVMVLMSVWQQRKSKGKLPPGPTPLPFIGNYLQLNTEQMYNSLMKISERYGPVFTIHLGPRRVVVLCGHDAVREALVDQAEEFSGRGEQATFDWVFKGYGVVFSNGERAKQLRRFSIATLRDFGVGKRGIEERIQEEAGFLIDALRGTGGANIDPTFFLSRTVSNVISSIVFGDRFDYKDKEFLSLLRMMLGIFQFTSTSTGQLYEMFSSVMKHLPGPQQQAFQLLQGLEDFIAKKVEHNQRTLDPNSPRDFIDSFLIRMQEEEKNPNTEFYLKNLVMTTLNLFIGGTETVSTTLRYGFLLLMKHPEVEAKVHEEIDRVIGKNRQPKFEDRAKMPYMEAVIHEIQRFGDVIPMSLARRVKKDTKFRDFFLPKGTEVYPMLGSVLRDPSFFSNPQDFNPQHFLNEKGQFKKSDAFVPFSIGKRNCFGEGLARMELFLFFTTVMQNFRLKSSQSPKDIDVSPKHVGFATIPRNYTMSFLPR
ENDPOINT LABEL: IC50

SMILES STRING | ENDPOINT LABEL | REPORTED RESULT
COc1cc(N)c(F)cc1C(=O)CCC1CCN(CC2CCCCC2)CC1.O=C(O)/C=C/C(=O)O | IC50 | > 100 µM

* * *

TEST METHOD NOTES: Half life in C57BL6 mouse at 0.3 to 3 mg/kg, iv
Type: ADME, organism-based
TEST CONDITIONS: in vivo, dose 0.3-3 mg/kg
ENDPOINT LABEL: half-life

SMILES STRING | REPORTED RESULT
COc1cc(N)c(F)cc1C(=O)CCC1CCN(CC2CCCCC2)CC1.O=C(O)/C=C/C(=O)O | 47.8 min

* * *

SUBJECT OF TEST: Cytochrome P450 1A2 (Homo sapiens, UniProt P05177)
Sequence (P05177 whole entry): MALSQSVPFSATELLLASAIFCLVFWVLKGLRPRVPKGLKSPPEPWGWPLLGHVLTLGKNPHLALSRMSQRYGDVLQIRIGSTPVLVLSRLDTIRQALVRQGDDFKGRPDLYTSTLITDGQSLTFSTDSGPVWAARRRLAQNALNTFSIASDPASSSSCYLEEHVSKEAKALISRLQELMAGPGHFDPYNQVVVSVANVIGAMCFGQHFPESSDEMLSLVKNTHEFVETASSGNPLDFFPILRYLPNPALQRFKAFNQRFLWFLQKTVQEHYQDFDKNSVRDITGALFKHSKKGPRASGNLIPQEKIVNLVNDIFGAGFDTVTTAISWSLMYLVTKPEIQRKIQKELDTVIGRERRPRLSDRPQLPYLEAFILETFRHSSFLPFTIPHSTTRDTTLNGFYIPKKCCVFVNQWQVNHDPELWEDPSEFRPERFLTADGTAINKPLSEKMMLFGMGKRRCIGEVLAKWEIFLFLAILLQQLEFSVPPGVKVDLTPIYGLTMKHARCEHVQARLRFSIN
ENDPOINT LABEL: IC50 (µM)

SMILES STRING | SUBJECT OF TEST | REPORTED RESULT
COc1cc(N)c(F)cc1C(=O)CCC1CCN(CC2CCCCC2)CC1.O=C(O)/C=C/C(=O)O | Cytochrome P450 1A2 (Homo sapiens, UniProt P05177) | 83.1
